# system_tested: human carbonic anhydrase IX (CAIX) (human, UniProt Q16790 38-414)
# experiment_notes: competition fluorescence polarisation, tracer A-(SEQ ID NO:1)-A-Sar6-K(FI); n = 1
*1 amine or outer side, *2 acyl side, *3 side chain or, on linkers, in order; H or OH if unused. Bridges are numbered along the chain shown (N, C = ends). Where no end group is shown, it is not given here. TBMB = c1c(C[*:1])cc(C[*:3])cc1C[*:2]
attribute_measured: Ki (nM)
Just the number please, in nM, no unit attached.

# count of solved cases: 3
ACRECWVDGWVECA (linker 2-5-13 via TBMB, Bicyclic peptide on TBMB scaffold) [61-01-08-N001]	5.6
ACGECWVDGWVSCA (linker 2-5-13 via TBMB, Bicyclic peptide on TBMB scaffold) [61-01-09-N001]	39.8
ACEECWVDGWVPCA (linker 2-5-13 via TBMB, Bicyclic peptide on TBMB scaffold) [61-01-05-N001]	12.2

Problem: Item under review: ACWWCEDITGRPCA (linker 2-5-13 via TBMB, Bicyclic peptide on TBMB scaffold) [61-18-N001] . Reported Ki?
Solution: 312

Reference for the values: patent US20220133732A1
